These entries and their values trace back to patent US11708318B2.

Experiment: Solubility assessment of Sample 1 (majorly Form 1) in 24 solvent systems
Format: physicochemical
Settings: 1,2-dimethoxyethane, 50 °C, organic solvent or mixture, thermodynamic from solid, 1,2-dimethoxyethane; sample ID A16; read-out: Solubility assessment 40 vol.
Measured Property: solubility

q: Would you kindly share the measured solubility for CCNCCc1ccc(CN(CC)c2cc(OC)ccc2[C@@H]2CCc3cc(O)ccc3C2)cc1.Cl.Cl ?
a: < 25 mg/mL

---

Experiment: Solubility assessment of amorphous RAD1901-2HCl in water/organic solvent system
Type: physicochemical
Conditions: water-saturated ethyl acetate, organic solvent or mixture, thermodynamic from solid, Water-saturated ethyl acetate; sample ID C10; read-out: Solubility assessment 10 vol.
Measured Property: solubility

q: Would you kindly share the measured solubility for CCNCCc1ccc(CN(CC)c2cc(OC)ccc2[C@@H]2CCc3cc(O)ccc3C2)cc1.Cl.Cl [amorphous RAD1901-2HCl] ?
a: < 100 mg/mL

---

Experiment: Solubility assessment of Sample 1 (majorly Form 1) in 24 solvent systems
Format: physicochemical
Conditions: water, 50 °C, water, thermodynamic from solid, Water; sample ID A12; read-out: Solubility assessment 20 vol.
Measured Property: solubility

q: Would you kindly share the measured solubility for CCNCCc1ccc(CN(CC)c2cc(OC)ccc2[C@@H]2CCc3cc(O)ccc3C2)cc1.Cl.Cl ?
a: 50 to 100 mg/mL

---

Test: Solubility assessment of Sample 1 (majorly Form 1) in 24 solvent systems
Format: physicochemical
Conditions: methanol, 50 °C, organic solvent or mixture, thermodynamic from solid, Methanol; sample ID A20; read-out: Solubility assessment 20 vol.
Measured Property: solubility

q: Would you kindly share the measured solubility for CCNCCc1ccc(CN(CC)c2cc(OC)ccc2[C@@H]2CCc3cc(O)ccc3C2)cc1.Cl.Cl [Sample 1] ?
a: 50 to 100 mg/mL

---

Assay: Solubility assessment of Sample 1 (majorly Form 1) in 24 solvent systems
Assay type: physicochemical
Conditions: 10% water/THF, 50 °C, organic solvent or mixture, thermodynamic from solid, 10% water/THF; sample ID A24; read-out: Solubility assessment 60 vol.
Measured Property: solubility

q: Would you kindly share the measured solubility for CCNCCc1ccc(CN(CC)c2cc(OC)ccc2[C@@H]2CCc3cc(O)ccc3C2)cc1.Cl.Cl ?
a: 16.7 to 25 mg/mL

---

Assay: Solubility assessment of Sample 1 (majorly Form 1) in 24 solvent systems
Type: physicochemical
Conditions: toluene, 50 °C, organic solvent or mixture, thermodynamic from solid, Toluene; sample ID A15; read-out: Solubility assessment 20 vol.
Measured Property: solubility

q: Would you kindly share the measured solubility for CCNCCc1ccc(CN(CC)c2cc(OC)ccc2[C@@H]2CCc3cc(O)ccc3C2)cc1.Cl.Cl [Sample 1] ?
a: < 50 mg/mL

---

Test: Solubility assessment of Sample 1 (majorly Form 1) in 24 solvent systems
Type: physicochemical
Conditions: ethyl acetate, 50 °C, organic solvent or mixture, thermodynamic from solid, Ethyl acetate; sample ID A3; read-out: Solubility assessment 20 vol.
Measured Property: solubility

q: Would you kindly share the measured solubility for CCNCCc1ccc(CN(CC)c2cc(OC)ccc2[C@@H]2CCc3cc(O)ccc3C2)cc1.Cl.Cl [Sample 1] ?
a: < 50 mg/mL

---

Assay: Solubility assessment of Sample 1 (majorly Form 1) in 24 solvent systems
Assay type: physicochemical
Settings: 10% water/IPA, 50 °C, organic solvent or mixture, thermodynamic from solid, 10% water/IPA; sample ID A23; read-out: Solubility assessment 10 vol.
Description: Solubility assessment was carried out on the Sample 1 of RAD1901-2HCl (majorly Form 1 shown by XRPD) in 24 solvent systems in HPLC vials (sample IDs: A1 to A24). […] After each addition of solvent, the system was stirred for 5 to 10 minutes at 25° C., then shaken at 50° C. for 5 to 10 minutes, and observations made. […] All solids recovered from maturation, cooling and evaporation experiments were analyzed by high resolution XRPD.
Measured Property: solubility

q: Would you kindly share the measured solubility for CCNCCc1ccc(CN(CC)c2cc(OC)ccc2[C@@H]2CCc3cc(O)ccc3C2)cc1.Cl.Cl ?
a: < 100 mg/mL

---

Test: Solubility assessment of amorphous RAD1901-2HCl
Format: physicochemical
Conditions: organic solvent or mixture, thermodynamic from solid; Dichloromethane; sample ID B18; read-out: Solubility assessment 10 vol.
Measured Property: solubility

q: Would you kindly share the measured solubility for CCNCCc1ccc(CN(CC)c2cc(OC)ccc2[C@@H]2CCc3cc(O)ccc3C2)cc1.Cl.Cl [amorphous RAD1901-2HCl] ?
a: < 100 mg/mL

---

Test: Solubility assessment of amorphous RAD1901-2HCl in water/organic solvent system
Format: physicochemical
Details: anhydrous ethyl acetate, organic solvent or mixture, thermodynamic from solid, Ethyl acetate (anhydrous); sample ID C9; read-out: Solubility assessment 10 vol.
Measured Property: solubility

q: Would you kindly share the measured solubility for CCNCCc1ccc(CN(CC)c2cc(OC)ccc2[C@@H]2CCc3cc(O)ccc3C2)cc1.Cl.Cl [amorphous RAD1901-2HCl] ?
a: < 100 mg/mL

---

Experiment: Solubility assessment of Sample 1 (majorly Form 1) in 24 solvent systems
Assay type: physicochemical
Details: isopropyl acetate, 50 °C, organic solvent or mixture, thermodynamic from solid, Isopropyl acetate; sample ID A4; read-out: Solubility assessment 20 vol.
Measured Property: solubility

q: Would you kindly share the measured solubility for CCNCCc1ccc(CN(CC)c2cc(OC)ccc2[C@@H]2CCc3cc(O)ccc3C2)cc1.Cl.Cl ?
a: < 50 mg/mL

---

Test: Solubility assessment of Sample 1 (majorly Form 1) in 24 solvent systems
Type: physicochemical
Settings: isopropyl acetate, 50 °C, organic solvent or mixture, thermodynamic from solid, Isopropyl acetate; sample ID A4; read-out: Solubility assessment 10 vol.
Measured Property: solubility

q: Would you kindly share the measured solubility for CCNCCc1ccc(CN(CC)c2cc(OC)ccc2[C@@H]2CCc3cc(O)ccc3C2)cc1.Cl.Cl ?
a: < 100 mg/mL

---

Experiment: Solubility assessment of amorphous RAD1901-2HCl
Format: physicochemical
Conditions: organic solvent or mixture, thermodynamic from solid; Ethanol; sample ID B10; read-out: Solubility assessment 10 vol.
Measured Property: solubility

q: Would you kindly share the measured solubility for CCNCCc1ccc(CN(CC)c2cc(OC)ccc2[C@@H]2CCc3cc(O)ccc3C2)cc1.Cl.Cl [amorphous RAD1901-2HCl] ?
a: < 100 mg/mL

---

Experiment: Solubility assessment of Sample 1 (majorly Form 1) in 24 solvent systems
Type: physicochemical
Conditions: nitromethane, organic solvent or mixture, thermodynamic from solid, Nitromethane; sample ID A21; read-out: Solubility assessment 60 vol.
Measured Property: solubility

q: Would you kindly share the measured solubility for CCNCCc1ccc(CN(CC)c2cc(OC)ccc2[C@@H]2CCc3cc(O)ccc3C2)cc1.Cl.Cl [Sample 1] ?
a: < 16.7 mg/mL

---

Assay: Solubility assessment of amorphous RAD1901-2HCl
Assay type: physicochemical
Conditions: organic solvent or mixture, thermodynamic from solid; 10% water/IPA; sample ID B23; read-out: Solubility assessment 10 vol.
Measured Property: solubility

q: Would you kindly share the measured solubility for CCNCCc1ccc(CN(CC)c2cc(OC)ccc2[C@@H]2CCc3cc(O)ccc3C2)cc1.Cl.Cl [amorphous RAD1901-2HCl] ?
a: < 100 mg/mL

---

Experiment: Solubility assessment of amorphous RAD1901-2HCl
Assay type: physicochemical
Settings: organic solvent or mixture, thermodynamic from solid; Ethyl acetate; sample ID B3; read-out: Solubility assessment 10 vol.
Measured Property: solubility

q: Would you kindly share the measured solubility for CCNCCc1ccc(CN(CC)c2cc(OC)ccc2[C@@H]2CCc3cc(O)ccc3C2)cc1.Cl.Cl [amorphous RAD1901-2HCl] ?
a: < 100 mg/mL

---

Test: Solubility assessment of Sample 1 (majorly Form 1) in 24 solvent systems
Assay type: physicochemical
Settings: 2-propanol, 50 °C, organic solvent or mixture, thermodynamic from solid, 2-propanol; sample ID A6; read-out: Solubility assessment 20 vol.
Measured Property: solubility

q: Would you kindly share the measured solubility for CCNCCc1ccc(CN(CC)c2cc(OC)ccc2[C@@H]2CCc3cc(O)ccc3C2)cc1.Cl.Cl ?
a: < 50 mg/mL

---

Test: Solubility assessment of Sample 1 (majorly Form 1) in 24 solvent systems
Type: physicochemical
Conditions: water, 50 °C, water, thermodynamic from solid, Water; sample ID A12; read-out: Solubility assessment 10 vol.
Protocol: Solubility assessment was carried out on the Sample 1 of RAD1901-2HCl (majorly Form 1 shown by XRPD) in 24 solvent systems in HPLC vials (sample IDs: A1 to A24). […] After each addition of solvent, the system was stirred for 5 to 10 minutes at 25° C., then shaken at 50° C. for 5 to 10 minutes, and observations made. […] All solids recovered from maturation, cooling and evaporation experiments were analyzed by high resolution XRPD.
Measured Property: solubility

q: Would you kindly share the measured solubility for CCNCCc1ccc(CN(CC)c2cc(OC)ccc2[C@@H]2CCc3cc(O)ccc3C2)cc1.Cl.Cl ?
a: 50 to 100 mg/mL

---

Assay: Solubility assessment of Sample 1 (majorly Form 1) in 24 solvent systems
Format: physicochemical
Conditions: n-heptane, organic solvent or mixture, thermodynamic from solid, n-Heptane; sample ID A1; read-out: Solubility assessment 60 vol.
Measured Property: solubility

q: Would you kindly share the measured solubility for CCNCCc1ccc(CN(CC)c2cc(OC)ccc2[C@@H]2CCc3cc(O)ccc3C2)cc1.Cl.Cl ?
a: < 16.7 mg/mL
